FYI, the data here is from ChEMBL document CHEMBL1122075.

Species: Canis familiaris
Assay: Compound was tested for its renal vasodilator activity in dogs.
Type: functional
Details: Canis lupus familiaris
For each of the molecules below, state its ED15.
Give just the number in mg/kg; leave the unit off.

In: For the molecule Cl.Oc1cc2c(cc1O)[C@@H](c1ccccc1)CNCC2 , what ED15 is on record?
Out: 0.025

In: Also, NCCc1ccc(O)c(O)c1 please.
Out: 0.0027

In: Also, Cl.Oc1cc2c(cc1O)C(c1ccccc1)CNCC2 (racemic) please.
Out: 0.031
